For each record, write down the corresponding solubility.
- PROTOCOL_DESCRIPTION: Solubility to water calculated from UV-visible absorbance
- REPORTED_CONDITIONS: water, thermodynamic from solid
One number for each entry, in mM.

The following molecules have reported results that may help.
O=C1c2cc(OCCOCCOCCO)c(O)c(OCCOCCOCCO)c2C(=O)c2cc(OCCOCCOCCO)c(O)c(OCCOCCOCCO)c21
500
O=C1c2ccccc2C(=O)c2c1cc(OCCCS(=O)(=O)[O-])c(OCCCS(=O)(=O)[O-])c2OCCCS(=O)(=O)[O-].[Na+].[Na+].[Na+]
510

Would you be so kind as to report solubility for each listed record?
1. O=C1C(SCCCS(=O)(=O)[O-])=C(SCCCS(=O)(=O)[O-])C(=O)c2ccccc21.[K+].[K+]
2. O=C([O-])COc1cc2c(c(OCC(=O)[O-])c1OCC(=O)[O-])C(=O)c1cc(OCC(=O)[O-])c(OCC(=O)[O-])c(OCC(=O)[O-])c1C2=O.[K+].[K+].[K+].[K+].[K+].[K+]

stdout:
[670, 200]
